test system: MCF7; assay: Cytotoxicity against human MCF7 cells; format: functional; details: read-out: ED50 (the source's name)
observed_property: EC50 (µg/mL)

- compound: "CCOC(=O)/C=C\\C(=O)/C=C/COC(=O)c1ccccc1 [HOMOISOMELODIENONE]"
  observed_property: "EC50"
  measurement_unit: "µg/mL"
  result_value: 4.26
- compound: "CC(=O)OC(/C=C1/C=CC(=O)O1)COC(=O)c1ccccc1 (stereo not given) [ACETYLMELODORINOL]"
  observed_property: "EC50"
  measurement_unit: "µg/mL"
  result_value: 1.96
- compound: "CCOC(=O)/C=C/C(=O)/C=C/COC(=O)c1ccccc1 [HOMOMELODIENONE]"
  observed_property: "EC50"
  measurement_unit: "µg/mL"
  result_value: 25.6
- compound: "O=C1C=C/C(=C/C(O)COC(=O)c2ccccc2)O1 (stereo not given) [MELODORINOL]"
  observed_property: "EC50"
  measurement_unit: "µg/mL"
  result_value: 1.99
- compound: "COC(=O)/C=C/C(=O)CC(O)COC(=O)c1ccccc1 (stereo not given)"
  observed_property: "EC50"
  measurement_unit: "µg/mL"
  result_value: 1.92

Origin of measurements: ChEMBL document CHEMBL1158951
